Would you kindly list protein stability index for each of these variants?
B1: RPAIN (parent)
chain: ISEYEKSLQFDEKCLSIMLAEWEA

Variants of: B1
EXPERIMENT_SUMMARY: protein stability index of a GFP-peptide fusion (GPS, HEK-293T) (PSI 1-6); higher = more stable;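 note: lentivirally expressed fusions sorted by FACS into six bins by GFP to DsRed ratio, PSI derived from sequencing read proportions per bin multiplied by bin number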
CONDITIONS_USED: c terminus: a fixed tail appended
Give bare numbers.

Below: 4 variants and their reported protein stability index.
ISEYEKSLQPDEKCLSIMLAEWEA [F10P] :: 3.43
ISEYEKSLMFDEKCLSIMLAEWEA [Q9M] :: 2.03
ISEYEKSLQFSEKCLSIMLAEWEA [D11S] :: 2.29
ISIYEKSLQFDEKCLSIMLAEWEA [E3I] :: 1.74

Look up protein stability index for the entries below, preserving their order.
1. ISEYEKSLSFDEKCLSIMLAEWEA [Q9S]
2. ISEYEKSLQFDEKCLSIMLAAWEA [E21A]

Response:
1. 1.7
2. 2.12

Look up protein stability index for the entries below, preserving their order.
1. ISEYEKSLQFDEKCLSNMLAEWEA [I17N]
2. ISEYEKSLQFDEKCLSIMLAEEEA [W22E]
3. ISEYEKYLQFDEKCLSIMLAEWEA [S7Y]
4. ISEYEKSLQFKEKCLSIMLAEWEA [D11K]
5. ISEYEKSLQFDEKRLSIMLAEWEA [C14R]

Response:
[2.48, 4.21, 1.76, 1.95, 2.32]

Look up protein stability index for the entries below, preserving their order.
1. ISEYEKSLQFDEKMLSIMLAEWEA [C14M]
2. SSEYEKSLQFDEKCLSIMLAEWEA [I1S]
3. ISEYEKSLQFDEKCLSIMLARWEA [E21R]

Response:
1.58
1.8
3.58

Look up protein stability index for the entries below, preserving their order.
1. ISEYEKSLQYDEKCLSIMLAEWEA [F10Y]
2. ISEYEKSLQFDEKCYSIMLAEWEA [L15Y]
3. ISEYEKSLQFDEKCLSIMLAEWED [A24D]
4. ISEYEKSLQFDERCLSIMLAEWEA [K13R]
5. ISEYDKSLQFDEKCLSIMLAEWEA [E5D]
6. ISEYEKSLQFDEKCLSIMLAEWES [A24S]
7. ISEYEKSLQFDEKCLSIMLAEWEP [A24P]

Response:
[1.97, 3.38, 2.5, 2.05, 1.55, 1.72, 2.49]
